# pEC50 annotations
- targetDesc: human wild type STING (WT STING) (Homo sapiens, UniProt Q86WV6, H232R)
- Sequence (Q86WV6 whole entry H232R): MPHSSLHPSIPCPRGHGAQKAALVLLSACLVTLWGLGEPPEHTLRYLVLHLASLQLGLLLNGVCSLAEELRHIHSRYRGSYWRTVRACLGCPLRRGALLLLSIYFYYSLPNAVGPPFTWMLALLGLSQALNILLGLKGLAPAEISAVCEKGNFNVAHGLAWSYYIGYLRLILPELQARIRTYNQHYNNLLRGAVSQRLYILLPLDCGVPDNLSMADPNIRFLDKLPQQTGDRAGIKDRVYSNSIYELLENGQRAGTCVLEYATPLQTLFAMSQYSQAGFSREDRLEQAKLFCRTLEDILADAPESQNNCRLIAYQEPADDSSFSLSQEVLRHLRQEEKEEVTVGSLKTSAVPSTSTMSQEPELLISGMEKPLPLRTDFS
- assayOverview: Digitonin assay using 293T wtSTING-FL reporter cells (ISRE firefly luciferase reporter)
- conditions: 293T wtSTING-FL cells; 30 min in Digitonin buffer, then 5 hours; luciferase read-out; 8-point dose-response curve; read-out: Digitonin assay EC50 (μmol · l^−1) WT STING
pEC50: −log10 of the molar value.
measuredParameter: pEC50

compound	valueComparator	reported
Nc1nc2c(ncn2[C@@H]2O[C@@H]3COP(=O)(O)CO[C@@H]4[C@H](O)[C@@H](COP(=O)(O)O[C@H]3[C@H]2O)O[C@H]4n2cnc3c(N)ncnc32)c(=O)[nH]1 [Example 6]	<	4.30
Nc1nc2c(ncn2[C@@H]2O[C@@H]3COP(=O)(O)O[C@H]4[C@@H](O)[C@H](n5cnc6c(=O)[nH]c(N)nc65)O[C@@H]4COP(=O)(O)O[C@H]3[C@H]2O)c(=O)[nH]1 [3′3′-c-di-GMP, reference compound]	=	5.24
Nc1nc2c(ncn2[C@@H]2O[C@@H]3COP(=O)(O)CO[C@H]4[C@@H](O)[C@H](n5cnc6c(N)ncnc65)O[C@@H]4COP(=O)(O)O[C@@H]2C3)c(=O)[nH]1 [Example 21]	=	8.22

These data points were gathered from patent US11149052B2.
